targetOfAssay: Gastrin/cholecystokinin type B receptor (Mus musculus)
Sequence (P56481 whole entry): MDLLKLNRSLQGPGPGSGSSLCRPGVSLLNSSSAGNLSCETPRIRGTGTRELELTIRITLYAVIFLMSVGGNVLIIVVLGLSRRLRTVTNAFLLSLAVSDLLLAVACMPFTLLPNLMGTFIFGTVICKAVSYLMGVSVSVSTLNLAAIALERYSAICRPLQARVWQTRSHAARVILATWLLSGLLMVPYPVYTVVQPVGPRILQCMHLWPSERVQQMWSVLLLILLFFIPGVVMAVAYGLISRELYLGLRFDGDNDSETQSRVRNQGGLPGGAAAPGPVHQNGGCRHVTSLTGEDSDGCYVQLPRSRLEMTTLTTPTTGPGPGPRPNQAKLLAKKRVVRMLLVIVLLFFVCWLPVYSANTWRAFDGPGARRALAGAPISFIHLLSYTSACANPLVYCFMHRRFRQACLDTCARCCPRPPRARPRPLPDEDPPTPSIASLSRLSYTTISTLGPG
runDescription: Binding affinity towards CCK-B receptor in mouse cerebral cortex using [125I]Bolton-Hunter CCK-8 as radioligand; Value ranges from 7.8-9.3 uM
Type: tissue-based
assayEndpoint: IC50 (µM)

• CCOP(=O)(OCC)OC1=CCN(Cc2ccccc2)CC1Cc1cn(C(=O)OC(C)(C)C)c2ccccc12 (stereo unspecified) = 8.5

---

targetOfAssay: Substance-P receptor (Cavia porcellus)
Sequence (P30547 whole entry): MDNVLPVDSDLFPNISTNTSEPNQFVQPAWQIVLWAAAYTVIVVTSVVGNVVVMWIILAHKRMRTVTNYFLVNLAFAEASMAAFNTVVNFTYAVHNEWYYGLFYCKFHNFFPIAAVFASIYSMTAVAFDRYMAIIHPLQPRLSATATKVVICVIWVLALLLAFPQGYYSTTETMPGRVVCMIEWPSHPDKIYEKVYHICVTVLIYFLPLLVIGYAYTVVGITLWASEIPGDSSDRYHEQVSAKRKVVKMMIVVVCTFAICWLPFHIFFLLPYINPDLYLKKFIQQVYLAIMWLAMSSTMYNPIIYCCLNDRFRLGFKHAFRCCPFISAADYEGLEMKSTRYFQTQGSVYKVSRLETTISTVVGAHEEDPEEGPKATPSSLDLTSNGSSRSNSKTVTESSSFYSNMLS
runDescription: Binding affinity towards NK-1 receptor in guinea pig cerebral cortex using [125I]-Bolton-Hunter substance P as radioligand; Value ranges from 7.3-8.8 uM
Format: tissue-based
pIC50: −log10 of the molar value.
assayEndpoint: pIC50

* O=C1CCN(C(=O)OCc2ccccc2)CC1Cc1ccccc1 (stereo unspecified) | 5.09

FYI, the data here is from ChEMBL document CHEMBL1127244.
